Listing of recorded pIC50 by entry.
system: CH1; assay: in vitro activity against human ovarian cell line CH1 (Table 2); type: cell-based; conditions: Homo sapiens
# pIC50 = -log10(concentration in molar units)

// below: answered molecules
Nc1ccc(-c2nc3ccccc3s2)cc1I: 4.52
Cc1cc(-c2nc3ccccc3s2)ccc1N: 4.72

Switching to the query record.
Could you tell me which pIC50 is on file for O=C(CCl)Nc1ccc(-c2nc3ccccc3s2)cc1 ?
5.80

* * *

Listing of recorded IC50 by entry.
system: A2780-cisR; assay: in vitro activity against human ovarian cell line A2780-cisR (Table 2); format: cell-based; details: Homo sapiens, A2780cisR; A2780-cisR (platinum-resistant)

// below: answered molecules
Cc1cc(-c2nc3ccccc3s2)ccc1N [DF203]: 18 µM
O=C(CCl)Nc1ccc(-c2nc3ccccc3s2)cc1 [DF180]: 1.6 µM

Switching to the query record.
Find the measured IC50: item Nc1ccc(-c2nc3ccccc3s2)cc1I [DF129, 2-(4'-amino-3'-iodophenyl)benzothiazole] , target or system A2780-cisR.
41 µM

* * *

test system: MOR/CPR; assay: in vitro inhibition of growth of human lung cancer cell line MOR/CPR (Table 1); type: cell-based; settings: Homo sapiens; MOR/CPR (cisplatin resistant line)
Listing of recorded pIC50 by entry.
# pIC50 = -log10(concentration in molar units)

Nc1ccc(-c2nc3ccccc3s2)cc1I: 7.60
Cc1cc(-c2nc3ccccc3s2)ccc1N: 7.40

Could you tell me which pIC50 is on file for O=C(CCl)Nc1ccc(-c2nc3ccccc3s2)cc1 ?
5.00

* * *

tested on: OVCAR-8; assay: in vitro activity against human ovarian cell line OVCAR-8 (Table 2); type: cell-based
pIC50: −log10 of the molar value.
Listing of recorded pIC50 by entry.

Cc1cc(-c2nc3ccccc3s2)ccc1N [DF203]: < 4.00

Could you tell me which pIC50 is on file for Nc1ccc(-c2nc3ccccc3s2)cc1I [DF129, 2-(4'-amino-3'-iodophenyl)benzothiazole] ?
< 4.00

* * *

test system: Prostatic DU 145; assay: in vitro inhibitory activity against human prostatic cell line DU 145 (Table 3); format: cell-based
Measurement Type: pIC50
# pIC50 = -log10(concentration in molar units)

Find the measured pIC50: item Nc1ccc(-c2nc3ccccc3s2)cc1I , target or system Prostatic DU 145.
4.28

* * *

experiment: aqueous solubility; assay type: physicochemical; details: water
Measurement Type: solubility (µg/mL)
Give the value in µg/mL but do not write µg/mL after it.

Could you tell me which solubility is on file for Nc1ccc(-c2nc3ccccc3s2)cc1 [CJM126, 2-(4'-Aminophenyl)benzothiazole] ?
3.8

* * *

Listing of recorded IC50 by entry.
system: SK-OV-3; experiment: in vitro activity against human ovarian cell line SK-OV-3 (Table 2); assay type: cell-based

Cc1cc(-c2nc3ccccc3s2)ccc1N [DF203]: > 100 µM

Switching to the query record.
Could you tell me which IC50 is on file for Nc1ccc(-c2nc3ccccc3s2)cc1I [DF129, 2-(4'-amino-3'-iodophenyl)benzothiazole] ?
> 100 µM

* * *

tested on: OVCAR-5; experiment: in vitro activity against human ovarian cell line OVCAR-5 (Table 2); format: cell-based
Measurement Type: IC50 (nM)
Give the value in nM but do not write nM after it.

Could you tell me which IC50 is on file for Nc1ccc(-c2nc3ccccc3s2)cc1I [DF129, 2-(4'-amino-3'-iodophenyl)benzothiazole] ?
300
